- Experimental Target: human IBAT (Homo sapiens)
- Construct: expressed in transfected cells; host or cells: Baby hamster kidney (BHK) cells, clone H14
- Experimental Protocol: In vitro assay of IBAT-mediated uptake of [14C]-taurocholate (TC) in H14 cells
- Type: cell-based
- Measurement Setup: read-out: Human TC IC50
Attribute Measured: pIC50
Answers are plain numbers, as −log10 of the molar value.

Consider the worked cases shown below.
CCCCC1(CCCC)CS(=O)(=O)c2ccc(N(C)C)cc2C(c2ccc(OCc3cccc[n+]3C)c(F)c2)C1O (stereo not drawn) : 7.89
CCCCC1(CCCC)CS(=O)(=O)c2ccc(N(C)C)cc2C(c2cccc(OCCOCCOCC[N+](C)(C)CCN(C)P(C)(=O)c3ccccc3)c2)C1O (stereo not drawn) : 8.70

Item CCCCC1(CCCC)CS(=O)(=O)c2ccc(N(C)C)cc2C(c2cccc(OCCOCCOCC[N+](C)(C)CCN(C)C(=O)c3ccccc3)c2)C1O (stereo not drawn) has what recorded pIC50?
8.70

* * *

- Experimental Target: human IBAT (Homo sapiens, UniProt Q12908)
- Construct: expressed in transfected cells; host or cells: Baby hamster kidney (BHK) cells, clone H14
- Sequence (Q12908 whole entry): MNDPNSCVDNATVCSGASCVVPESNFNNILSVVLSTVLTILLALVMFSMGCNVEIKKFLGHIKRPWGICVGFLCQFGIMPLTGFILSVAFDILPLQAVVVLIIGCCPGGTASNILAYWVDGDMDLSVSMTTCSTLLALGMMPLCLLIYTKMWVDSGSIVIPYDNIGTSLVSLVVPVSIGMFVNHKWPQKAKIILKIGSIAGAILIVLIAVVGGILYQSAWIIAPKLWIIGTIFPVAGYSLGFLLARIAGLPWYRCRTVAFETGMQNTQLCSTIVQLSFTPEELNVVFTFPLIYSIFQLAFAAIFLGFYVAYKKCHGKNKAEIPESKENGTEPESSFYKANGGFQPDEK
- Experimental Protocol: In vitro assay of IBAT-mediated uptake of [14C]-taurocholate (TC) in H14 cells
- Format: cell-based
- Measurement Setup: read-out: Human TC IC50
Lab note: anything with IC50 below 40 nM is marked label 1; values at 40 nM or higher are marked label 0.

CCCCC1(CCCC)CS(=O)(=O)c2ccc(N(C)C)cc2C(c2ccc(OCCN(C)C)cc2)C1O (centres unmarked) : label 0
CCCCC1(CCCC)CS(=O)(=O)c2ccc(N(C)C)cc2C(c2cccc(OCCOCCOCC[n+]3ccc(C(C)(C)C)cc3)c2)C1O (centres unmarked) : label 1
CCCCC1(CCCC)CS(=O)(=O)c2ccc(NC)cc2C(c2cccc(OC)c2)C1O (centres unmarked) : label 1
CCCCC1(CCCC)CS(=O)(=O)c2ccc(N(C)C)cc2C(c2ccc(OCCCC[n+]3ccc(C(=O)OC)cc3)c(F)c2)C1O (centres unmarked) : label 1
CCCCC1(CCCC)CS(=O)(=O)c2ccc(N(C)C)cc2C(c2cccc(OCCOCCOCC[N+](CC)(CC)CCNC(N)=O)c2)C1O (centres unmarked) : label 1

Consider CCCCC1(CCCC)CS(=O)(=O)c2ccc(OC)cc2C(c2ccc(F)cc2)C1O (centres unmarked) . Does its IC50 lie strictly below 40 nM?
label 0

Consider CCCCC1(CC)CS(=O)(=O)c2ccc(NC(=O)OCc3ccccc3)cc2C(c2ccc(OC)cc2)C1O (single isomer, unassigned) [Example 116] . Does its IC50 lie strictly below 40 nM?
label 0

Consider CCCCC1(CCCC)CS(=O)(=O)c2ccc(N(C)C)cc2C(c2cccc(OCCOCCOCC[N+](C)(C)CCN(CC)P(C)(=O)c3ccccc3)c2)C1O (centres unmarked) . Does its IC50 lie strictly below 40 nM?
label 1

* * *

- System: fecal bile acid (FBA)
- Experimental Protocol: Rat gavage assay (fecal bile acid increase)
- Type: in vivo
- Measurement Setup: dose .08 mg/kg/day
Hi there, I'd appreciate the recorded Delta (micromoles fecal bile acid per day) for every entry that follows.

Consider the worked cases shown below.
CCCCC1(CCCC)CS(=O)(=O)c2ccc(N(C)C)cc2[C@@H](c2ccc(OCCCCCc3nn[nH]n3)cc2)[C@H]1O : 38.1 micromoles fecal bile acid per day
CCCCC1(CCCC)CS(=O)(=O)c2ccc(N(C)C)cc2[C@@H](c2ccc(OCCCCCOc3cc(C(=O)O)nc(C(=O)O)c3)cc2)[C@H]1O : 25.3 micromoles fecal bile acid per day
CCCCC1(CCCC)CS(=O)(=O)c2ccc(N(C)C)cc2[C@@H](c2ccc(OCC(=O)NCC(=O)O)cc2)[C@H]1O : 11.9 micromoles fecal bile acid per day

Go through the list and state Delta (micromoles fecal bile acid per day) for each entry.
1. CCCCC1(CCCC)CS(=O)(=O)c2ccc(N(C)C)cc2[C@@H](c2ccc(OCc3ccc(CN(CC(=O)O)CC(=O)O)cc3)cc2)[C@H]1O (relative stereo)
2. CCCCC1(CCCC)CS(=O)(=O)c2ccc(N(C)C)cc2[C@@H](c2ccc(OCCCCCN(CC(=O)O)CC(=O)O)cc2)[C@H]1O
3. CCCCC1(CCCC)CS(=O)(=O)c2ccc(N(C)C)cc2[C@@H](c2ccc(OCCCC[n+]3cccc(O)c3)cc2)[C@H]1O.CS(=O)(=O)[O-]

1: 27.3 micromoles fecal bile acid per day; 2: 27.1 micromoles fecal bile acid per day; 3: 33 micromoles fecal bile acid per day

These measurements were taken from patent US6784201B2.
